- System: influenza virus A/WSN/33 (H1N1)
- test name: cytopathic effect (CPE) reduction assay, anti-influenza virus
- Assay type: cell-based, influenza A/WSN/33 (H1N1)
- setup conditions: read-out: IC50, inhibitory activity against influenza virus A/WSN/33 (H1N1); infected MDCK cells, MOI = 0.1, 40 h incubation, CellTiter-Glo readout
readout name: IC50 (µM)
Expressed in µM, but write only the number.

**Query** Report its IC50 with influenza virus A/WSN/33 (H1N1) as the test system: CC(=O)CCC1C(C)C1(C)C(=O)O (stereo not shown)
**Result** 66.4

---

- test name: in vitro
- setup conditions: dog
Reported CC50 at 40 h is given for each of the following compounds.

Examples from the recorded data:
compound | val
CCOC(=O)C1=C[C@@H](OC(CC)CC)[C@H](NC(C)=O)[C@@H](N)C1 [OSV, oseltamivir, reference compound] | > 100 µM
COC(=O)C(O)CC(=O)C1(C)C(C)C1CCC(C)=O (centres unmarked) | > 100 µM
CC(=O)CCC1C(C)C1(C)C(=O)O (centres unmarked) | > 100 µM
CC(=O)C1(C)C(C)C1CC(=O)O (centres unmarked) | > 100 µM

Now consider a different compound.
**Query** Input CC(=O)C=CC1C(C)C1(C)C(C)=O (centres unmarked) , output reported CC50 at 40 h.
**Result** > 100 µM

Recorded values, source paper PMC9321810.
